Every entry's value here was drawn from patent US20240209086A1.

targetOrSystem: canine CD3 on canine T cells (canine PBMC) (canine, UniProt P27597 22-202)
Sequence (P27597 22-202 limits assumed, chain 1 of 3): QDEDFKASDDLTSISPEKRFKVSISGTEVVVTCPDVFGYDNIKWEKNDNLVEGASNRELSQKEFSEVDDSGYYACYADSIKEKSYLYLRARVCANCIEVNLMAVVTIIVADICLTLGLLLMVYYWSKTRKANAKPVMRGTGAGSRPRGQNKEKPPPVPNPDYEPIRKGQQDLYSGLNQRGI
Sequence (chain, as listed by the source limits assumed, chain 2 of 3): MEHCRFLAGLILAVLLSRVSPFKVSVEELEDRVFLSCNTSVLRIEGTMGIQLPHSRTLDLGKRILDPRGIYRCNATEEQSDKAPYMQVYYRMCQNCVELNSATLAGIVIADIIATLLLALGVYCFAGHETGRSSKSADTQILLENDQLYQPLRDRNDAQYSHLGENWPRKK
Sequence (chain, as listed by the source limits assumed, chain 3 of 3): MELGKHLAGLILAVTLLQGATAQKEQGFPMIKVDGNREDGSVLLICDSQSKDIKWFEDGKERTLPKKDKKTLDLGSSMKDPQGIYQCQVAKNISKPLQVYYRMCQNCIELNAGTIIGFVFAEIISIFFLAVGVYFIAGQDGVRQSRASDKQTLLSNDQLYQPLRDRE
protocolText: cell-based or functional assay
Classification field: met = CD25 Activation, Day 6, IS at or over 10; not met = CD25 Activation, Day 6, IS under 10.

- binder: "PMX166 (monospecific anti-canine CD3, canine IgG-B effector function deficient Fc) (antibody, V domains shown) VH: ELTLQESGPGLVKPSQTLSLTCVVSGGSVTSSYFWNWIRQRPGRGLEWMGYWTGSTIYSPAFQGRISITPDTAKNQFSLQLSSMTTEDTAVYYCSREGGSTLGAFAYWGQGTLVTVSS VL: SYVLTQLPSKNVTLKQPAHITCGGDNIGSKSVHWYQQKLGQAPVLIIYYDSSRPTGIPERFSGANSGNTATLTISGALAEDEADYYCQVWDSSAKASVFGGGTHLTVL"
  answerLabel: "met"
- binder: "PMX176 (monospecific anti-canine CD3, canine IgG-B effector function deficient Fc) (antibody, V domains shown) VH: EVQLVESGGDLVKPGGSLRLSCVASGFTFSSYHMSWVRQAPGKGLQWVAYINSAGSTTSYTDAVQGRFTISRDNAKNTLYLQMNSLRAEDTAVYYCASEWIFMPWGQGSLVTVSS VL: SYVLTQLPSKNVTLKQPAHITCGGDNIGSKSVHWYQQKLGQAPVLIIYYDSSRPTGIPERFSGANSGNTATLTISGALAEDEADYYCQVWDSSAKARVFGEGTQLTVL"
  answerLabel: "met"
- binder: "PMX183 (monospecific anti-canine CD3, canine IgG-B effector function deficient Fc) (antibody, V domains shown) VH: ELTLQESGPGLVKPSQTLSLTCVVSGGSVTNSYYWNWIRQRPGRELEWMGYWTGGTKYNPAFQGRISISADTAKNQFSLQLTSMTTEDTAVYYCARDRDRRVPHAYGYWGQGTLVTVSS VL: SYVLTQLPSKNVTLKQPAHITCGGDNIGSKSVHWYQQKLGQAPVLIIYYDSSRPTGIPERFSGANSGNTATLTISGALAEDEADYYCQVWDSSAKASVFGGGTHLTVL"
  answerLabel: "met"
- binder: "PMX180 (monospecific anti-canine CD3, canine IgG-B effector function deficient Fc) (antibody, V domains shown) VH: ELTLQESGPGLVKPSQTLSLTCVVSGGSVTSNYYWNWIRQRPGRGLEWMGYWTGSTNYNPAFQGRISITADTAKKQFSLQLRSMTIEDTAVYYCARRGIPIFFDYWGQGTLVTVSS VL: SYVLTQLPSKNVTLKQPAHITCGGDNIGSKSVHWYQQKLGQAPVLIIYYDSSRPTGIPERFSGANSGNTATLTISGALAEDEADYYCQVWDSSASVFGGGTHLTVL"
  answerLabel: "met"
- binder: "PMX200 (monospecific anti-canine CD3, canine IgG-B effector function deficient Fc) (antibody, V domains shown) VH: ELTLQESGPGLVKPSQTLSLTCIVSGGSVTSSYYWNWIRQSPGRGLEWMGYWTGNTNYNPALQGRIFITADTAKNQFSLQLRSMTTEDTAVYYCARGGYGYHYGMDYWGHGTSVFVSS VL: SYVLTQLPSKSVALKQPAHITCGGDNIGSKRVHWYQQKLGQAPALIISFDNSRPTGIPERFSGANSGNTATLTISGALAEDEADYYCQVWDSTAKASIFGGGTHLTVL"
  answerLabel: "not met"
- binder: "PMX196 (monospecific anti-canine CD3, canine IgG-B effector function deficient Fc) (antibody, V domains shown) VH: ELTLQESGPGLVKPSQTLSLTCVVSGGSVTSSYYWNWIRQRPGRGLEWMGYWTGSTIYNPAFQGRISITADTAKNQFSLQLSSMTTEDTAVYFCVRERRMAFGSWGQGTLVIVSS VL: SYVLTQLPSKSVTLKQPAHITCGGDNIGRKSVHWYQQKLGQAPVLIISFDNNRPTGIPERFSGANSGNTATLTISGALAEDEADYYCQVWDSSAKASVFGGGTHLTVL"
  answerLabel: "met"

Record PMX158 (monospecific anti-canine CD3, canine IgG-B effector function deficient Fc) (antibody, V domains shown) VH: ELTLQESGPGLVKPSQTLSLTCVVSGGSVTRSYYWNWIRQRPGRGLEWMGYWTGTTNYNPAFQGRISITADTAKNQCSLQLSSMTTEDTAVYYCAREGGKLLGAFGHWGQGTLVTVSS VL: SYVLTQLPSKNVTLKQPAHITCGGDKIGSKSVHWYQQKLGQAPVLIIYYDSSRLTGIPERFSGANSGNTATLTISGALAEDEADYYCQVWDSSAKASVFGGGTHLTVL ; criterion: CD25 Activation, Day 6, IS no lower than 10. Met?
met

Record PMX168 (monospecific anti-canine CD3, canine IgG-B effector function deficient Fc) (antibody, V domains shown) VH: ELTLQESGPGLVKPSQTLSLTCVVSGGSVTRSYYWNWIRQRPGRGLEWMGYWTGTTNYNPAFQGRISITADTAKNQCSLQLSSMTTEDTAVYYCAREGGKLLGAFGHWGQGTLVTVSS VL: SYVLTQLPSKNVTLKQPAHITCGGDKIGSKSVHWYQQKLGQAPVLIIYYDSSRPTGIPERFSGANSGNTATLTISGALAEDEADYYCQVWDSSAKASVFGGGTHLTVL ; criterion: CD25 Activation, Day 6, IS no lower than 10. Met?
not met

Record PMX193 (monospecific anti-canine CD3, canine IgG-B effector function deficient Fc) (antibody, V domains shown) VH: EVQLVESGGDLVKPGGSLRLSCVASGFTFSTYHMSWVRQAPGKGLQWVAYISSGGSRTNYADAVKGRFTISRDNAKNTLYLQMNSLRAEDAAVFYCARHYGSSLFDYWGQGTLVTVSS VL: DIVMTQTPLSLSVSPGEPASISCKASQSLLHINGNTYLYWFRQKPGQSPQRLIYKVSNRDPGVPDRFSGSGSGTDFTLRISRVEADDAGVYYCGQGIQDPTFGKGTHLEIK ; criterion: CD25 Activation, Day 6, IS no lower than 10. Met?
not met

Record PMX181 (monospecific anti-canine CD3, canine IgG-B effector function deficient Fc) (antibody, V domains shown) VH: ELTLQESGPGLVKPSQTLSLTCIVSGGSVTNNYYWTWIRQRPGRGLEWMGYWTGFTNYNPAFQGRISIIANTAKKQLSLQLSSLTTEDTAVYYCARRAIPTYFDYWGQGTLVTVSS VL: SYVLTQLPSKNVTLKQPAHITCGGDNIGSRSVHWYQQKLGQAPVLIIYYDSSRPTGIPERFSGANSGNTATLTISGALAEDEADYYCQVWDSSASVFGGGTHLTVL ; criterion: CD25 Activation, Day 6, IS no lower than 10. Met?
met
